B1: ELKS1_RBD, Rab-binding domain of ELKS1 (residues 849-922) [rat] / ^Q72L, GTPase domain (residues 8-176), constitutively active mutant [mouse] (parent)
chain 1: RKHLEEVLEMKQEALLAAISEKDANIALLELSSSKKKTQEEVAALKREKDRLVQQLKQQTQNRMKLMADNYEDD
chain 2: GNPLRKFKLVFLGEQSVGKTSLITRFMYDSFDNTYQATIGIDFLSKTMYLEDRTVRLQLWDTAGLERFRSLIPSYIRDSTVAVVVYDITNLNSFQQTSKWIDDVRTERGSDVIIMLVGNKTDLADKRQITIEEGEQRAKELSVMFIETSAKTGYNVKQLFRRVASALPG

Variants of: B1
Assay: ITC
Conditions: with Rab6B^Q72L
measured-property: Kd

// Kd lookup, variant = chain 1 S20A , result: 26 µM
